Origin of the recorded values: patent US20230263822A1

# System: human Factor 11 mRNA
# test-method-notes: Antisense inhibition of human Factor 11 in HepG2 cells, lipofectin, 75 nM (Example 1)
# Format: cell-based
# measurement-context: 75 nM antisense oligonucleotide, ~24 h, relative to untreated control cells, gapmers targeted to SEQ ID NO: 1
Strand notation (5' to 3'): a small letter for the sugar, then the base; units joined by * are phosphorothioate-linked, units joined directly phosphodiester-linked; [ ] holds rarer units or linkages, { } end groups; capitals alone tell only the bases. e = 2'-O-(2-methoxyethyl) (MOE); [5mC] = 5-methylcytosine; d = 2'-deoxy (DNA)
What % inhibition was measured for each of the following?

What measured % inhibition goes with 412241 (antisense eT*eA*eT*eT*eA*dT*dT*dT*d[5mC]*dT*dT*dG*dA*dA*d[5mC]*e[5mC]*e[5mC]*e[5mC]*eA*eA) [compound 412241] ?
41%

Dear colleague, I am looking for the recorded % inhibition of the following substance: 412253 (antisense eA*eA*eA*eT*eA*dT*dT*dG*d[5mC]*d[5mC]*dT*dT*dA*dT*dG*eG*eT*eA*eA*eT) [compound 412253]
20%

Form field: reported % inhibition of 412206 (antisense e[5mC]*e[5mC]*eG*eT*eG*d[5mC]*dA*dT*d[5mC]*dT*dT*dT*d[5mC]*dT*dT*eG*eG*e[5mC]*eA*eT) [compound 412206]
87%

What value of % inhibition has been recorded for this entry: 412229 (antisense eG*eT*eA*e[5mC]*eA*d[5mC]*dT*d[5mC]*dA*dT*dT*dA*dT*d[5mC]*d[5mC]*eA*eT*eT*eT*eT) [compound 412229]
64%

* * *

# System: human Factor 11 mRNA
# test-method-notes: Dose-dependent inhibition of human Factor 11 in HepG2 cells, electroporation 0.7-20 uM (Example 4)
# Type: cell-based
# measurement-context: 20 μM, relative to untreated control cells
# Procedure: The gapmers were also transfected via electroporation and their dose dependent inhibition of human Factor 11 mRNA was measured. […] After a treatment period of approximately 16 hours, RNA was isolated from the cells and Factor 11 mRNA levels were measured by quantitative real-time PCR. […] Factor 11 mRNA levels were adjusted according to total RNA content, as measured by RIBOGREEN. […]
Strand notation (5' to 3'): a small letter for the sugar, then the base; units joined by * are phosphorothioate-linked, units joined directly phosphodiester-linked; [ ] holds rarer units or linkages, { } end groups; capitals alone tell only the bases. e = 2'-O-(2-methoxyethyl) (MOE); [5mC] = 5-methylcytosine; d = 2'-deoxy (DNA)
measurement-name: percent inhibition of Factor 11 at 20 μM (%)
Please state the figure in %; there is no need to write the unit.

Report percent inhibition of Factor 11 at 20 μM for 416969 (antisense eG*e[5mC]*d[5mC]*d[5mC]*dT*dT*d[5mC]*dA*dT*dG*dT*d[5mC]*dT*dA*dG*eG*eT*e[5mC]*e[5mC]*eA) [compound 416969] please.
92

I would be grateful if you could share the reported percent inhibition of Factor 11 at 20 μM for 416922 (antisense eG*e[5mC]*eA*d[5mC]*dA*dG*dT*dT*dT*d[5mC]*dT*dG*dG*d[5mC]*dA*dG*dG*e[5mC]*e[5mC]*eT) [compound 416922] .
91

Form field: reported percent inhibition of Factor 11 at 20 μM of 417003 (antisense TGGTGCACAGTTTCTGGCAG; 2-13-5 gapmer chemistry, further chemistry not given here) [compound 417003]
89

I would be grateful if you could share the reported percent inhibition of Factor 11 at 20 μM for 416999 (antisense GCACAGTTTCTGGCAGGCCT; 2-13-5 gapmer chemistry, further chemistry not given here) [compound 416999] .
88

Name the recorded percent inhibition of Factor 11 at 20 μM for 416908 (antisense eG*e[5mC]*eA*dA*d[5mC]*d[5mC]*dG*dG*dG*dA*dT*dG*dA*dT*dG*dA*dG*eT*eG*e[5mC]) [compound 416908] .
89

Which percent inhibition of Factor 11 at 20 μM is listed for 416972 (antisense eT*eA*dT*dG*d[5mC]*d[5mC]*d[5mC]*dT*dT*d[5mC]*dA*dT*dG*dT*d[5mC]*eT*eA*eG*eG*eT) [compound 416972] ?
88

Item 416827 (antisense eT*eA*eT*eG*e[5mC]*d[5mC]*d[5mC]*dT*dT*d[5mC]*dA*dT*dG*dT*d[5mC]*eT*eA*eG*eG*eT) [compound 416827] has what recorded percent inhibition of Factor 11 at 20 μM?
92

For the substance 416993 (antisense e[5mC]*eT*dT*dT*dG*dA*dG*dA*dT*dT*d[5mC]*dT*dT*dT*dG*eG*eG*e[5mC]*e[5mC]*eA) [compound 416993] , what percent inhibition of Factor 11 at 20 μM is on record?
92

Quick one: percent inhibition of Factor 11 at 20 μM of 412203 (antisense eA*eA*eT*eG*eT*d[5mC]*dT*dT*dT*dG*dT*dT*dG*d[5mC]*dA*eA*eG*e[5mC]*eG*e[5mC]) [compound 412203] ?
91

If you can, please state the reported percent inhibition of Factor 11 at 20 μM value of 417000 (antisense eT*eG*d[5mC]*dA*d[5mC]*dA*dG*dT*dT*dT*d[5mC]*dT*dG*dG*d[5mC]*eA*eG*eG*e[5mC]*e[5mC]) [compound 417000] .
89

Item 416896 (antisense eT*eT*eA*dT*dG*d[5mC]*d[5mC]*d[5mC]*dT*dT*d[5mC]*dA*dT*dG*dT*d[5mC]*dT*eA*eG*eG) [compound 416896] has what recorded percent inhibition of Factor 11 at 20 μM?
89

Request the reported percent inhibition of Factor 11 at 20 μM associated with 416895 (antisense eT*eA*eT*dG*d[5mC]*d[5mC]*d[5mC]*dT*dT*d[5mC]*dA*dT*dG*dT*d[5mC]*dT*dA*eG*eG*eT) [compound 416895]
91

Suppose we examine the substance 416984 (antisense e[5mC]*eA*dA*d[5mC]*d[5mC]*dG*dG*dG*dA*dT*dG*dA*dT*dG*dA*eG*eT*eG*e[5mC]*eA) [compound 416984] ; what percent inhibition of Factor 11 at 20 μM value has been reported?
90

Would you mind telling me what percent inhibition of Factor 11 at 20 μM value was observed for 416941 (antisense eG*eG*e[5mC]*dA*dG*d[5mC]*dG*dG*dA*d[5mC]*dG*dG*d[5mC]*dA*dT*dT*dG*eG*eT*eG) [compound 416941] ?
89

* * *

# test-method-notes: Hematology assays in cynomolgus monkeys (Example 46)
# Format: in vivo
# measurement-context: Day 17
Strand notation (5' to 3'): a small letter for the sugar, then the base; units joined by * are phosphorothioate-linked, units joined directly phosphodiester-linked; [ ] holds rarer units or linkages, { } end groups; capitals alone tell only the bases. e = 2'-O-(2-methoxyethyl) (MOE); [5mC] = 5-methylcytosine; d = 2'-deoxy (DNA)
Hi there, I'd appreciate the recorded neutrophils for every entry that follows.
The response must be a number in % with no trailing unit.

Could you tell me which neutrophils is on file for ISIS 449707: 3-8-3, 4-8-4, 2-10-2, 3-10-3 or 4-10-4 MOE microwalk gapmer (Table 46) (antisense e[5mC]*eA*e[5mC]*eA*dG*dT*dT*dT*d[5mC]*dT*dG*dG*e[5mC]*eA*eG*eG) ?
80

Give its neutrophils value. Item: ISIS 445522: 5-8-5 or 6-8-6 MOE microwalk gapmer (Table 44) (antisense eG*e[5mC]*eA*e[5mC]*eA*dG*dT*dT*dT*d[5mC]*dT*dG*dG*e[5mC]*eA*eG*eG*e[5mC])
81

GET /values?readout=neutrophils&item= ISIS 449710: 3-8-3, 4-8-4, 2-10-2, 3-10-3 or 4-10-4 MOE microwalk gapmer (Table 46) (antisense e[5mC]*eA*e[5mC]*dA*dG*dT*dT*dT*d[5mC]*dT*dG*dG*d[5mC]*eA*eG*eG)
80

* * *

# measurement-context: mouse, in vivo, sc, 50 mg/kg
measurement-name: Neutrophil (cells/μL)
Entry rule: numbers only, all in cells/μL.

// Neutrophil lookup, key: ISIS 416864: MOE gapmer, nucleobases 1275 to 1318 of SEQ ID NO: 1 (Table 8) (antisense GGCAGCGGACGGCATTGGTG; MOE gapmer, wing and gap sizes not given here)
973

Return reported Neutrophil; argument: ISIS 416855: MOE gapmer, nucleobases 1275 to 1318 of SEQ ID NO: 1 (Table 8) (antisense CATTGGTGCACAGTTTCTGG; MOE gapmer, wing and gap sizes not given here)
1443

Consider the substance shown here: ISIS 416866: MOE gapmer, nucleobases 1275 to 1318 of SEQ ID NO: 1 (Table 8) (antisense CTGGCAGCGGACGGCATTGG; MOE gapmer, wing and gap sizes not given here) What is its recorded Neutrophil?
1201
